biological target: T1, PSMA Fab; experiment: competition ELISA; peptide 0-100 µM with 0.3 nM PSMA Fab on plate-captured biotinylated PSMA
T1 construct: also called 006 PSMA Fab; anti-PSMA Fab
RESULT_TYPE: pIC50
Numbers only, as −log10 of the molar value.

Lookup: For the binder IAVLCQPNWMCAGA (Alanine-scan variant F14A of Peptide-180) [Peptide-260] , what pIC50 is on record?
Found: 4.22

Can you give me pIC50 for all of these, one by one?
1. IAVLCQPNWMCAAF (Alanine-scan variant G13A of Peptide-180) [Peptide-259]
2. IAVACQPNWMCAGF (Alanine-scan variant L4A of Peptide-180) [Peptide-253]

Found:
4.17
4.55

Lookup: Request the reported pIC50 associated with AAVLCQPNWMCAGF (Alanine-scan variant I1A of Peptide-180) [Peptide-251]
Found: 5.07
